# system: T1, human MSLN-R3-3 polypeptide (human)
# T1 construct: also called human MSLN-R3-3 protein; hMSLN-R3-3
# measurement_protocol: ELISA on coated antigen, antibody 0.1 nM
quantity_measured: OD450 (OD450)
Report as a plain number; the unit OD450 is understood.

- binder: "S009-F2.58.8 (antibody, human IgG1, kappa, V domains shown, Human-murine chimeric antibody: murine VH/VL on human IgG1 heavy and kappa light constant regions) VH: QVQLLQSGAELAKPGASVKLSCKASGYTFTSYWVHWVKQRPGQGLEWIGYINPNSGYTKYNQKFKDKATLTADKSSSTAYMQLSSLTYEDSAVYYCADHYYGSSRDYFDYWGQGTTLTVSS VL: QIVLTQSPAIMSASPGEKVTMTCSASSSVSYMYWYQQRPGSSPRLLIYDTSNLASGVPVRFSGSGSGTSYSLTISRMEAEDAATYYCQQWNSYPYTFGGGTKLEIKR"
  quantity_measured: "OD450"
  meas_value: 0.06
- binder: "S009-F2.23.12 (antibody, human IgG1, kappa, V domains shown, Human-murine chimeric antibody: murine VH/VL on human IgG1 heavy and kappa light constant regions) VH: QVQLQQPGTELVKPGASVKLSCKASGYTFTNYWMHWVKQRPGQGLEWIGNINPSNGGPYYNERFRSKATLTVDKSSSTAYMQLSSLTSEDSAVYYCARPYYGSSYGYFDYWGQGTTLTVSS VL: DIQMTQSPSSLSASLGGKVTITCKASQDINKYIAWYQHKPGKGPRLLIHYTSELQPGIPSRFSGNGSGRDYSFSISNLEPEDIATYYCLQYANPLRTFGGGTKLEIKR"
  quantity_measured: "OD450"
  meas_value: 0.05

Would you mind telling me what OD450 value was observed for S009-F2.39.3 (antibody, human IgG1, kappa, V domains shown, Human-murine chimeric antibody: murine VH/VL on human IgG1 heavy and kappa light constant regions) VH: QVQLQQPGTELVKPGASVKLSCKASGYTFTNYWMHWVKQRPGQGLEWIGNINPSSGDSYYNERFMSKAKMTVDKSSSTAYMQLSSLTSEDSAVYYCARSGGLWLAFWGPGTLVTVSA VL: DIVMTQSPSSLAMSVGQKVTMSCKSSQTLLNSVSQNNYLAWYQQKPGQSPTLLVYFASTRESGVPDRFIGGGSGTDFTLTISSVQAEDLADYFCQQHYRTPYTFGGGTNLEIKR ?
0.05

Data credit: patent US20250250357A1
